Tested on: SNB-75
assay: NCI tumour cell line growth inhibition, 48 h
The source made the active and inactive calls. No stated cut-off is given here; in the data, active = GI50 up to about 1.1 µM and inactive = higher.
Outcome (select one): active, inactive

[O-][S+](c1ccccc1)C1CC2CC3(CCC21O)OCCO3 (stereo unspecified)	inactive
Oc1ccc([C@H]2c3c(O)cc(O)cc3C3c4c(cc(O)cc4[C@@H]2[C@H]2c4cc(O)cc5c4C(c4cc(O)cc(O)c4[C@@H]2c2ccc(O)cc2)[C@@H](c2ccc(O)cc2)O5)O[C@@H]3c2ccc(O)cc2)cc1 (stereo partly specified)	active
CN(C)C(=S)/N=c1\ss/c(=N\S(=O)(=O)c2ccccc2)n1C	inactive

Prompt: Recorded call for N#Cc1c(Nc2ccccc2)[n+]([O-])c2ccc(Cl)cc2[n+]1[O-] ?
Response: inactive

Prompt: Recorded call for COc1cc([C@@H]2c3cc4c(cc3[C@@H](/N=C/c3ccc(C(=O)O[C@@H](C(=O)O[C@H]5C[C@@]6(O)[C@@H](OC(=O)c7ccccc7)[C@@H]7[C@]8(OC(C)=O)CO[C@@H]8C[C@H](O)[C@@]7(C)C(=O)[C@H](OC(C)=O)C(=C5C)C6(C)C)[C@@H](NC(=O)c5ccccc5)c5ccccc5)cc3)[C@H]3COC(=O)[C@H]23)OCO4)cc(OC)c1O ?
Response: active

Prompt: Recorded call for COc1ccc2c(c1)CCC/C2=N\NS(=O)(=O)c1c(C)cc(C)cc1C ?
Response: inactive

* * *

Tested on: OVCAR-4
assay: NCI tumour cell line growth inhibition, 48 h
Calls of active or inactive are those of the source. No stated cut-off is given here; in the data, active = GI50 up to about 1.1 µM and inactive = higher.
Outcome (select one): YES for active, NO for inactive

Examples from the recorded data:
COc1cc2cc3c4c(cc(OC)c(OC)c4c2cc1OC)CCN3C	NO
COc1cc(S(=O)(=O)Nc2ccc(-c3csc(N4C(=O)CSC4c4ccccc4)n3)cc2)ccc1Cl (stereo unspecified)	NO
Nc1cc(S(=O)(=O)O)cc2ccc(S(=O)(=O)O)cc12	NO
Nc1cc(Cl)ccc1SSc1ccc(Cl)cc1N	NO
CN1CCN(CC(=O)Nc2cccc3ccccc23)CC1	NO
O=Cc1ccc(-c2cccc([N+](=O)[O-])c2)s1	NO
O=C(O)CNc1c2ccccc2[n+]([O-])c2ccccc12	NO
COc1c(O)cc2c(c1O)C(=O)C1=C(CCCC1)C2=O	NO
O=C1CSC(c2ccc(Cl)cc2)N1c1ccc(Oc2ccc(Cl)cc2)c(Cl)c1 (stereo unspecified)	NO
COC(=O)C(=O)C(C(=O)C(=O)Nc1cc(C)ccc1C)c1nc2ccccc2nc1O (stereo unspecified)	NO

Prompt: Recorded call for COC(=O)C1CC2CC(=NNC(N)=O)CC2C1 (stereo unspecified) ?
Response: NO

Prompt: Recorded call for CCOC(=O)Cc1nn2c(=O)cc(C)nc2s1 ?
Response: NO

Prompt: Recorded call for COc1ccc(C2OCCN2C)cc1 (stereo unspecified) ?
Response: NO

Prompt: Recorded call for C[n+]1c2ccccc2c(CNC(CS)C(=O)O)c2ccccc21 (stereo unspecified) ?
Response: NO

Prompt: Recorded call for [N-]=[N+]=Nc1ccc2c(c1)Sc1ccccc1N2CCCCN1CCN(Cc2ccc(C(=O)c3ccccc3)cc2)CC1 ?
Response: NO

Prompt: Recorded call for CCCCCOC(=O)c1cc2cc(CCl)ccc2oc1=O ?
Response: NO

Prompt: Recorded call for COC1(OC)C2(Cl)C(Cl)=C(Cl)C1(Cl)C1C=CC=CC12 (stereo unspecified) ?
Response: NO
